biological target: Kynureninase (Pseudomonas fluorescens); assay: Compound was evaluated for its binding affinity against kynureninase isolated from Pseudomonas fluorescence
Each item that follows carries a reported Ki.
Express the result in µM but write the number alone.

Q: Which Ki value is on record for COC(=O)[C@H](CP(=O)(OC)c1ccccc1)NC(=O)OCc1ccccc1 (some centres undefined) ?
A: 8.8

Q: Quick one: Ki for `Nc1ccccc1C(=O)C[C@H](N)C(=O)O` ?
A: 4.28

Q: So what's the measured Ki for this one? COP(=O)(C[C@H](NC(=O)OCc1ccccc1)C(=O)O)c1ccccc1 (some centres undefined)
A: 880

Q: State the recorded Ki for this entry: N[C@@H](CC(=O)c1ccccc1)C(=O)O [2-ammonio-4-oxo-4-phenyl-(2S)-butanoate]
A: 23.4
